Test Target: Chromo domain-containing protein 1 (Saccharomyces cerevisiae (strain ATCC 204508 / S288c) (Baker's yeast)) (UniProt P32657)
Sequence (P32657 whole entry, the tested form may be a part): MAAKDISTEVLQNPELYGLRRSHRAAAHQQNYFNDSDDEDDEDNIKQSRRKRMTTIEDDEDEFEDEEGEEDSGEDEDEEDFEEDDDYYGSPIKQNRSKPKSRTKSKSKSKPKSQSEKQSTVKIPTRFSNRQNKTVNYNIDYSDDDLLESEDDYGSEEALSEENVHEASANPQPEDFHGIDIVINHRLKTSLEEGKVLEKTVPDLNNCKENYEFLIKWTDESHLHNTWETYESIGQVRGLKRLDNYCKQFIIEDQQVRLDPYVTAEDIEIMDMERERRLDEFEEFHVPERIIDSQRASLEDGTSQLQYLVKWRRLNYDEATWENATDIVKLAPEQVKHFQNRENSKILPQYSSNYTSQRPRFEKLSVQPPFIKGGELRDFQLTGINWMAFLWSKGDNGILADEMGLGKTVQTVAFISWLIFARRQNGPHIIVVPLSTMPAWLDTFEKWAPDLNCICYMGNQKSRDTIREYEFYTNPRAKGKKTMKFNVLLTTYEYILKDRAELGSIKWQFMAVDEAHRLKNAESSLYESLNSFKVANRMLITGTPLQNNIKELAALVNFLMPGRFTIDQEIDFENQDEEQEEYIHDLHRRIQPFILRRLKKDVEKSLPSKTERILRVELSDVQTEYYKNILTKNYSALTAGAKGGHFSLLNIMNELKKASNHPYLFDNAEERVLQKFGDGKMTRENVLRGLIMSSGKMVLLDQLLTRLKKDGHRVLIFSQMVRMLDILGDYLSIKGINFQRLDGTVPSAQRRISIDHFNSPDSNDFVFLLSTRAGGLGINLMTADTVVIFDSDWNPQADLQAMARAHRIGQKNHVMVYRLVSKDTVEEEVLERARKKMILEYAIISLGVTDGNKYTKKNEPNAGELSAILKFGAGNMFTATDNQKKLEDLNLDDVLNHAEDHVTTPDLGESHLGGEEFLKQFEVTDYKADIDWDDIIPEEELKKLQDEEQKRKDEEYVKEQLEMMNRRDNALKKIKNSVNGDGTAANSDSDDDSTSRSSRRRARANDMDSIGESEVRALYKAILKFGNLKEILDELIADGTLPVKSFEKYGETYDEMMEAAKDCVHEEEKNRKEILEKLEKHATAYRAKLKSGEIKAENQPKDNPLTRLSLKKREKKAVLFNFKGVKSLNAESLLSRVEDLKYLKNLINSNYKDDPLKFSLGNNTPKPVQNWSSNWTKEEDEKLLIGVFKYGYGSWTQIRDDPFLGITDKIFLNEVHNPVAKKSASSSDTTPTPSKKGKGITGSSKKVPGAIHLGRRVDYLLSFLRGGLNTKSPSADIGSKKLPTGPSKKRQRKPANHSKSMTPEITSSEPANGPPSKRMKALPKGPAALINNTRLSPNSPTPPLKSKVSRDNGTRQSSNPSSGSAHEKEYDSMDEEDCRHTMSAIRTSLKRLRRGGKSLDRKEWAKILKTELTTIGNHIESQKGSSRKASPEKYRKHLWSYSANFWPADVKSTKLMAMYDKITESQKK
Procedure Summary: ScCHD-1 Enzyme Inhibition Assay
Assay type: functional
Design: scale not given: in the data most compounds retested in dose-response had high values
Test Conditions: 30 µM

Compound: Cc1noc(C2CCC3(CCN(C(=O)c4c(C)noc4C)CC3)O2)n1 (centres undefined)
Percent Effect: -1.92%
//
Compound: CC(=O)c1cc(CC(=O)NCc2ccc(F)cc2)cs1
Percent Effect: -0.261%
//
Compound: CCS(=O)(=O)N1CCC2(CC(=O)N(c3cccc(C)c3)C2)C1 (centres undefined)
Percent Effect: -6.79%
//
Compound: O=C(CC1CN(Cc2ccccc2)CCO1)Nc1ccccc1F (centres undefined)
Percent Effect: -1.97%
//
Compound: Cc1nn(C)c(C)c1CC(=O)N1CCC(N(C)c2cccnn2)CC1
Percent Effect: -9.53%
//
Compound: CC(C)CN1CCCn2nc(CNC(=O)CCCc3cn[nH]c3)cc2C1
Percent Effect: -7.73%
//
Compound: Cc1nnc2n1CCN(CCS(=O)(=O)c1ccccc1)C2
Percent Effect: -8%
//
Compound: CCS(=O)(=O)NC[C@]12COC[C@H]1CN(Cc1cccc(OC)c1)C2
Percent Effect: 14.6%
//
Compound: CCC(=O)N1CCc2[nH]cnc2C12CCN(C(=O)CCS(C)(=O)=O)CC2
Percent Effect: -2.55%
//
Compound: CCc1noc(C(C)N2CCC(C(=O)Nc3cnn(CC)c3)CC2)n1 (centres undefined)
Percent Effect: -28.9%
//
Compound: CC(O)CN1CCN(Cc2cccc(C(=O)N(C)C)c2)CC1 (centres undefined)
Percent Effect: 9.61%
//
Compound: Cc1cccnc1CNc1cc(N2CCCC2CO)ncn1 (centres undefined)
Percent Effect: -6.83%
//
Compound: c1cnn(Cc2nnc(C3CCN(C4CCOCC4)CC3)n2C2CC2)c1
Percent Effect: 103%
//
Compound: Cc1cc(-c2cnc(N3CCNC(=O)C3)nc2-c2ccc(C)o2)on1
Percent Effect: -16.5%
//
Compound: CCS(=O)(=O)N1C[C@H]2C[C@H](C(=O)N(C)C)[C@@H](C1)O2
Percent Effect: -3.75%
//
Compound: Cc1ccc(NC2CCN(C(=O)COc3cccnc3)CC2)nn1
Percent Effect: -15.5%
//
Compound: CC(CNC(=O)c1ccc(F)cc1Cl)N1CCCC1 (centres undefined)
Percent Effect: -0.608%
//
Compound: Cc1oncc1C(=O)N1CCC2(CC1)CC(c1ccccc1)C(=O)N2C (centres undefined)
Percent Effect: -5.13%
//
Compound: O=C(CN1CCCCC1Cn1cncn1)NCCC1=CCCCC1 (centres undefined)
Percent Effect: -6.11%
//
Compound: COCc1nc(C(=O)N2CCCCC2Cn2cc(C)cn2)cs1 (centres undefined)
Percent Effect: -21.5%
//
Compound: O=C(c1cc[nH]n1)N1CCCC1C1CCN(Cc2ccccc2)CC1 (centres undefined)
Percent Effect: -1.17%
//
Compound: CC(NC(=O)NCCCO)c1ccc2c(c1)OCCO2 (centres undefined)
Percent Effect: -6.78%
//
Compound: Cc1nc(CCNC(=O)NC2CCN(c3ncccn3)CC2)cs1
Percent Effect: 0.13%
//
Compound: Cc1nc(C)n(CC2CCCCN2CC(=O)Nc2ccncc2)n1 (centres undefined)
Percent Effect: -9.59%
